Molecular target: GSK3b (GST-full length GSK3b) (Homo sapiens (Human), UniProt P49841)
Sequence (P49841 whole entry): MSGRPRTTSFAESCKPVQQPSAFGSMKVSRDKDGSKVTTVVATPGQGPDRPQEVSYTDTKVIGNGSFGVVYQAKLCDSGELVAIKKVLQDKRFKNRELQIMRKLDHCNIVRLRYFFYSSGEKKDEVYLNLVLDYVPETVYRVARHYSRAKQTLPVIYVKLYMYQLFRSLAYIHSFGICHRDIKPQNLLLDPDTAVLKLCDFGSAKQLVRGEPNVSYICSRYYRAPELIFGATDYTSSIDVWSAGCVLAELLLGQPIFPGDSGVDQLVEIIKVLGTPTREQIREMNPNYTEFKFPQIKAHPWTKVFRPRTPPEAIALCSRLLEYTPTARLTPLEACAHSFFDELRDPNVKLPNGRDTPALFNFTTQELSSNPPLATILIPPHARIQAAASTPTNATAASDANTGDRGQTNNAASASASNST
Assay: GSK3b TR-FRET kinase assay
Assay type: biochemical
Details: 1 nM GSK3b, 2 μM ATP, 30 minute preincubation, Table 16; read-out: GSK3-B TR-FRET BIOCHEMICAL (TR-FRET); IC50
pIC50: −log10 of the molar value.
RECORDED_METRIC: pIC50

MOLECULE	RESULT
CCC1(c2ccccc2)C2=C(Nc3n[nH]cc31)C1CCC1C2=O (centres unmarked) [Compound 861716]	< 5.30
CCC1(c2cccc(-c3cnn(C4CC4(F)F)c3)c2)C2=C(CC(C)(C)NC2=O)Nc2n[nH]cc21 (centres unmarked) [Compound 949393]	< 5.30
CCC1(c2cccc(Oc3ncccn3)c2)C2=C(CC(C)(C)NC2=O)Nc2n[nH]c(F)c21 (centres unmarked) [Compound 950615]	6.00 to 7.00
CC[C@]1(c2cccc(-c3c(F)cncc3OC)c2)C2=C(CC(C)(C)C2=O)Nc2n[nH]cc21 [Compound 952562]	< 5.30
CC1(C)CC(=O)C2=C(C1)Nc1n[nH]cc1C21CCN(S(=O)(=O)C2CCCC2)CC1 [Compound 909206]	≥ 7.00
CCC1(c2cccc(N3CC(C)(C)C3C(C)C)c2)C2=C(CC(C)(C)CC2=O)Nc2n[nH]cc21 (centres unmarked) [Compound 902969]	5.30 to 6.00
CC[C@]1(c2cccc(N(C)c3cncnc3)c2)C2=C(CC(C)(C)NC2=O)Nc2n[nH]cc21 [Compound 915401]	5.30 to 6.00
CC[C@]1(c2cccc(-c3cnn(C(F)F)c3)c2)C2=C(CC(C)(C)NC2=O)Nc2n[nH]cc21 [Compound 950254]	5.30 to 6.00
CCC1(c2cccc(-c3cc(C4CCCC4)nn3C)c2)C2=C(CC(C)(C)NC2=O)Nc2n[nH]cc21 (centres unmarked) [Compound 952023]	5.30 to 6.00
CCC1(c2cccc(-c3cc(C(C)C)nn3C)c2)C2=C(CC(C)(C)NC2=O)Nc2n[nH]cc21 (centres unmarked) [Compound 951842]	5.30 to 6.00
CC[C@]1(c2cccc(-c3cc(C)ncc3C)c2)C2=C(CC(C)(C)CC2=O)Nc2n[nH]c(C)c21 [Compound 913050]	≥ 7.00

====

Molecular target: GSK3α (GST-full length GSK3α) (Homo sapiens (Human))
Sequence (P49840 whole entry): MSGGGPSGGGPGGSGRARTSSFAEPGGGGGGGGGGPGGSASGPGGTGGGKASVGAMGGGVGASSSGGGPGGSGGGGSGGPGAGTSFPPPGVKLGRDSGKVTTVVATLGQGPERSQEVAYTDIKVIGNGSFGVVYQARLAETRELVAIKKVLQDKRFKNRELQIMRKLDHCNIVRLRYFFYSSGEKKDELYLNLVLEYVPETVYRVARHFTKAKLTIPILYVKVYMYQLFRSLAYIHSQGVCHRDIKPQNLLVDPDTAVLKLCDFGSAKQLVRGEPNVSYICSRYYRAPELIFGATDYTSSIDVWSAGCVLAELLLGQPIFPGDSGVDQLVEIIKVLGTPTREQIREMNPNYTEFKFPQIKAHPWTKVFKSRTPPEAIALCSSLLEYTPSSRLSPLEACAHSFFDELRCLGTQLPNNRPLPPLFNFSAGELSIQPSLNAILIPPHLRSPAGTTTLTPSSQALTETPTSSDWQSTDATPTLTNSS
Experiment: GSK3α TR-FRET kinase assay
Type: biochemical
Settings: 1 nM GSK3α, 4 μM ATP, 30 minute preincubation, Table 16; read-out: GSK3-A TR-FRET BIOCHEMICAL (TR-FRET)

COMPOUND	IC50
COc1cc(S(=O)(=O)N2CCC3(CC2)C2=C(CC(C)(C)CC2=O)Nc2n[nH]cc23)ccc1Cl [Compound 945669]	≤ 100 nM
COc1ccc(S(=O)(=O)N2CCC3(CC2)C2=C(CC(C)(C)CC2=O)Nc2n[nH]cc23)cc1 [Compound 917143]	≤ 100 nM
Cc1cc(S(=O)(=O)N2CCC3(CC2)C2=C(CC(C)(C)CC2=O)Nc2n[nH]cc23)ccn1 [Compound 947481]	≤ 100 nM
CC[C@@]1(c2cccc(-c3ccnc4c3CCCC4)c2)C2=C(CC(C)(C)CC2=O)Nc2n[nH]cc21 [Compound 944036]	1000 to 5000 nM
Cn1nccc1S(=O)(=O)N1CCC2(CC1)C1=C(CC(C)(C)CC1=O)Nc1n[nH]cc12 [Compound 932649]	≤ 100 nM
CC1(C)CC(=O)C2=C(C1)Nc1n[nH]cc1[C@@]21CCOC(C)(C)C1 [Compound 924299]	100 to 1000 nM
CC(C)n1ccc(S(=O)(=O)N2CCC3(CC2)C2=C(CC(C)(C)CC2=O)Nc2n[nH]cc23)n1 [Compound 947258]	≤ 100 nM
